Target: human FXa (Homo sapiens, UniProt P00742)
Sequence (P00742 235-488 limits assumed): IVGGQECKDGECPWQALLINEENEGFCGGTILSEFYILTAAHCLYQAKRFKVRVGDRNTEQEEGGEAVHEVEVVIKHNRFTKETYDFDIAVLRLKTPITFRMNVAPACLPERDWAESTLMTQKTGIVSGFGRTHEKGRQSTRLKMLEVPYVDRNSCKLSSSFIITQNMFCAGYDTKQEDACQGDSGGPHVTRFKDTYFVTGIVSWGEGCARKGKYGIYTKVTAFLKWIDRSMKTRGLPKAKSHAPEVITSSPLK
Sequence (P00742 41-179 partner limits assumed): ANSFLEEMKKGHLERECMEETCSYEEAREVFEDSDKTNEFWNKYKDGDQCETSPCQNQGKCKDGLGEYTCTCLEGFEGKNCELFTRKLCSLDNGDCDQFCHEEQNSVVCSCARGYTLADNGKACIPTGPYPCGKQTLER
Experiment: Human activated coagulation factor X (FXa) inhibiting activity
Conditions: substrate S-2765, 37° C., absorbance at 405 nm
quantity: IC50 (nM)

molecular string: CCOC(=O)NC1(CN2CCN(S(=O)(=O)c3ccc4cc(Cl)ccc4c3)CC2=O)CCN(c2ccncc2)CC1
result value: 4.6
